- Target: MidT-pY324
- Assay name: fluorescence polarization
Assay endpoint: Kd (nM)
Numeric answer only, unit nM assumed.

Examples with their reported Kd follow.
Binder | Output unit | Assay result
K15L (designed binder) MKIEEHHHHHHSSGRENLYFQGGAAQPAAPVDSIQAEEWYFGKLGRKDAERQLLSFGNPRGTFLIRESETTKGAYSLSIRDWDDMKGDHVKHYLIRKLDNGGYYITTRAQFETLQQLVQHYSERAAGLSSRLVVPSHKGAAA | nM | 420
S10A K15L (designed binder) MKIEEHHHHHHSSGRENLYFQGGAAQPAAPVDSIQAEEWYFGKLGRKDAERQLLSFGNPRGTFLIRESETTKGAYALSIRDWDDMKGDHVKHYLIRKLDNGGYYITTRAQFETLQQLVQHYSERAAGLSSRLVVPSHKGAAA | nM | 110

Q. Value lookup for Kd; key = S10V (designed binder) MKIEEHHHHHHSSGRENLYFQGGAAQPAAPVDSIQAEEWYFGKLGRKDAERQLLSFGNPRGTFLIRESETTKGAYVLSIRDWDDMKGDHVKHYKIRKLDNGGYYITTRAQFETLQQLVQHYSERAAGLSSRLVVPSHKGAAA
A. 360
